Emax reference
- Assayed system: mouse kappa opioid receptor (mKOR) (Mus musculus, UniProt P33534)
- Construct: Stimulation of Endogenous Mouse Kappa-Opioid Receptor in R1.G1 Cells; host or cells: R1.G1 mouse thymoma cells
- Sequence (P33534 whole entry): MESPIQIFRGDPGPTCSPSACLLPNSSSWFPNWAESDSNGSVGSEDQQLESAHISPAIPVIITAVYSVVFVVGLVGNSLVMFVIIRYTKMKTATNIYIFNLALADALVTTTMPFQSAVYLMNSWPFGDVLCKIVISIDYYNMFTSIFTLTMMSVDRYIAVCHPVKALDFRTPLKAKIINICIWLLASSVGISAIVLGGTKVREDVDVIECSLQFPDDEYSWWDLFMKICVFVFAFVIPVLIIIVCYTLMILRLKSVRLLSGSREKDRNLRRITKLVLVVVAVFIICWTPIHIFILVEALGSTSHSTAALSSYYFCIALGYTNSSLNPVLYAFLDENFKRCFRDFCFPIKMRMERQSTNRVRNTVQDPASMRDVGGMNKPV
- Test protocol: cell-based
- Measurement conditions: read-out: mKOR Efficacy(%)
Square brackets hold non-standard residues; d marks the D form. Peptide text beside a SMILES is read from it. * marks the point of attachment. Homopiperazine(4-amidino) = N=C(N)N1CCCN(*)CC1
Quick reminder: number only, in %, skip the unit.

- Molecule: "C/N=C(/N)N1CCCN(C(=O)[C@@H](CCCN)NC(=O)[C@@H](CC(C)C)NC(=O)[C@@H](Cc2ccccc2)NC(=O)[C@H](N)Cc2ccccc2)CC1"
  Assayed system: "mouse kappa opioid receptor (mKOR) (Mus musculus, UniProt P33534)"
  Emax, %: 101
- Molecule: "CC(C)C[C@@H](NC(=O)[C@@H](Cc1ccccc1)NC(=O)[C@H](N)Cc1ccccc1)C(=O)N[C@H](CCCNC(C)C)C(=O)NC1(C(=O)O)CCN(C(=O)[C@@H](CCCNC(C)C)NC(=O)[C@@H](CC(C)C)NC(=O)[C@@H](Cc2ccccc2)NC(=O)[C@H](N)Cc2ccccc2)CC1"
  Assayed system: "mouse kappa opioid receptor (mKOR) (Mus musculus, UniProt P33534)"
  Emax, %: 77

get_value(item= CCN1CCCN(C(=O)[C@@H](CCCN)NC(=O)[C@@H](CC(C)C)NC(=O)[C@@H](Cc2ccccc2)NC(=O)[C@H](N)Cc2ccccc2)CC1 , readout=Emax) returns 99

get_value(item= CNCCCC[C@@H](NC(=O)[C@@H](CC(C)C)NC(=O)[C@@H](Cc1ccccc1)NC(=O)[C@H](N)Cc1ccccc1)C(=O)N1CCCN(C(=N)N)CC1 , readout=Emax) returns 103

get_value(item= CC(C)C[C@@H](NC(=O)[C@@H](Cc1ccccc1)NC(=O)[C@H](N)Cc1ccccc1)C(=O)N[C@H](CCCN)C(=O)NCCN1CCN(CC(N)=O)CC1 , readout=Emax) returns 96

get_value(item= CC(C)C[C@@H](NC(=O)[C@@H](Cc1ccccc1)NC(=O)[C@H](N)Cc1ccccc1)C(=O)N[C@H](CCCCN)C(=O)N1CCC2(CCN(C)C2=O)CC1 , readout=Emax) returns 86

get_value(item= CC(C)C[C@@H](NC(=O)[C@@H](Cc1ccccc1)NC(=O)[C@H](N)Cc1ccccc1)C(=O)N[C@H](CCCNC(=N)N)C(=O)N1CCCN(C(=N)N)CC1 [Compound (24)] (H-[dF][dF][dL][dR]-{Homopiperazine(4-amidino)}) , readout=Emax) returns 97

get_value(item= CC(C)C[C@@H](NC(=O)[C@@H](Cc1ccccc1)NC(=O)[C@H](N)Cc1ccccc1)C(=O)N[C@H](CCCN)C(=O)N1CCC(CC(=O)O)CC1 , readout=Emax) returns 97

get_value(item= CC(C)C[C@@H](NC(=O)[C@@H](Cc1ccccc1)NC(=O)[C@H](N)Cc1ccccc1)C(=O)N[C@H](CCCCN)C(=O)N1CCN(c2nccs2)CC1 , readout=Emax) returns 85

get_value(item= CC(C)C[C@@H](NC(=O)[C@@H](Cc1ccccc1)NC(=O)[C@H](N)Cc1ccccc1)C(=O)N[C@H](CCCN)C(=O)N1CCCN(C2=NCCN2)CC1 , readout=Emax) returns 99

get_value(item= CC(C)C[C@@H](NC(=O)[C@@H](Cc1ccccc1)NC(=O)[C@H](N)Cc1ccccc1)C(=O)N[C@H](CCCN)C(=O)N1CCOC(C(=O)O)C1 (stereo partly drawn) , readout=Emax) returns 100

get_value(item= CC(C)C[C@@H](NC(=O)[C@@H](Cc1ccccc1)NC(=O)[C@H](N)Cc1ccccc1)C(=O)N[C@H](CCCCN)C(=O)N1CCN(S(=O)(=O)N(C)C)CC1 , readout=Emax) returns 86

From: patent US7713937B2
